- Tested on: P. aeruginosa strain CFS-1292
- Experimental details: MIC in presence of mouse, rat, rabbit and human serum ([…] each)
- Format: cell-based, Pseudomonas aeruginosa
- Measurement setup: P. aeruginosa CFS-1292; Sprague Dawley rat serum […]
Hi there, I'd appreciate the recorded MIC Sprague Dawley Rat Serum for every entry that follows.
API: value field is a number in µg/mL; no unit string.

Prompt: Test system P. aeruginosa strain CFS-1292; read-out MIC Sprague Dawley Rat Serum; what value for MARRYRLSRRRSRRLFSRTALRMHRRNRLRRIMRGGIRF [Chp4] ?
Response: 2

Prompt: What do you have for MARRRYRLPRRRSRRLFSRTALRMHPRNRLRRIMRGGIRF [Chp6] ?
Response: 4

Prompt: Similarly, MRRRRLSRRTSRRFFRKGLKVRRRNLRARPMRGGFRI [Unp2] ?
Response: 8

Prompt: For MRLKMARRRYRLPRRRSRRLFSRTALRMHPRNRLRRIMRGGIRF [Chp2] then?
Response: 2

Prompt: Would you mind doing MARSRRRMSKRSSRRSFRKYAKTHKKNFKARSMRGGIRL [Ecp3] as well?
Response: 8

Prompt: Proceed to MKRRKLSKKKSRKIFTRGAVNVKKRNLRARPMRGGFRI [Chp10]
Response: 4
